A collection of sequences and their measured protein stability index
# METHOD NOTES: protein stability index of a GFP-peptide fusion (GPS, HEK-293T) (PSI 1-6); higher = more stable;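 also: 24-mer peptide tiles fused after GFP, lentivirally expressed, FACS-sorted into six equal bins by GFP/DsRed ratio, decoded by Illumina sequencing, PSI is the read-weighted mean bin number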
# EXPERIMENTAL SETUP: treatment: DMSO; c terminus: a fixed tail appended
Lab note: jot the number down without any unit.

Known protein stability index results, listed for orientation:
RMLHRSTQTTNDGVCQSMCHDKYT [ZMYND11]: 3.94
DTGHDSDKSDQSLPNASADSLGGS [TRAF3IP2]: 5.35
AGNSSRNSSQSSSDGSCKTAGEMV [BTBD10]: 5.16
VTLMVAKWTGDFFNKGIYDIHVGL [CLCN6]: 2.46

## Input // protein stability index lookup, key: LDPRYKRLPFLSAFERQQVENRVV [ZBED1]
## Output 3.36

## Input Look up protein stability index: RFTRTPVDQTGVSGGVASFICQAT [PTPRD]
## Output 3.12

## Input Need protein stability index of GGRRPGTSPALLQGTAEEDHVDLS [CDKN1A] , thanks.
## Output 5.46

## Input Could you share which protein stability index value was measured for HWNGRHKPWDFPSVHNDLWESWFV [GLT8D2] ?
## Output 2.28

## Input So what's the measured protein stability index for this one? MILLVNLFVLLSVVCVLLNLAGFI [FAM189A2]
## Output 3.03

## Input Name the recorded protein stability index for GSNGYILNKPALQAQPLRTTSTLA [EHMT1] .
## Output 3.59

## Input I'd like to know its protein stability index. The sequence in question is NLLISLTFLTVTDLIGLPWVCFIY [SLC2A12]
## Output 3.36

## Input Entry under review: YVKAKKSIDKDEEFAGSSPQSSKS [FAN1] . Reported protein stability index?
## Output 3.57

---

# METHOD NOTES: protein stability index of a GFP-peptide fusion (GPS, HEK-293T) (PSI 1-6); higher = more stable
# EXPERIMENTAL SETUP: treatment: MLN4924 1 uM, 8 h; c terminus: a fixed tail appended
I would appreciate it if you labelled entries 1 (yes) when protein stability index is 3 or higher, otherwise 0 (no).

Below are worked cases with known answers.
VIDGATALWCAAGAGHFEVVKLLV [FEM1B]: 0 (no)
TAAGLMHTFNAHAATDITGFGILG [SEPHS2]: 0 (no)
VAEKVVVITKHNDDEQYAWESSAG [HSP90AB1]: 1 (yes)
MVAHDETGGLLPIKRTIRVLDVNN [NET1]: 1 (yes)
ERHTMDLTVEGFQSWMWRGLTFLL [TMEM120A]: 0 (no)
GACYGDDACFVARHRSADVLGVAD [PPTC7]: 1 (yes)
HVAPLLAAAGLHASPMSADRVVAF [NR2F2]: 0 (no)
NKALWENNKLKLQQKLVIDTVTEV [CBY2]: 1 (yes)
GETDEVTKTEDRELVLRKDCPKIV [ZSCAN9]: 1 (yes)
HLGKEQSRRDDLEALGHMFMYFLR [CSNK1G1]: 0 (no)

## Input I'd appreciate it if you could say whether SRIKGWWVFHHYVSTFLSGVMLTW [TMEM120A] has protein stability index at least equal to 3.
## Output 0 (no)

## Input Does the reported protein stability index for DTSKQKKMETMYPFIVTLEGNALQ [ZNF449] fall at or above the 3 mark?
## Output 0 (no)

## Input Could you verify whether the entry AVNQEAMNNAQRIEKWVILEKDFS [ACSBG2] shows protein stability index of no less than 3?
## Output 1 (yes)

## Input Determine whether measured protein stability index meets or exceeds 3 for RYVEFNLLYDRGTKFGLFTPGSRI [CPOX]
## Output 0 (no)

---

Listed below: protein stability index values for each entry.
# METHOD NOTES: protein stability index of a GFP-peptide fusion (GPS, HEK-293T) (PSI 1-6); higher = more stable
# EXPERIMENTAL SETUP: treatment: DMSO; c terminus: a fixed tail appended
Reply briefly: the number, and no unit.

These solved cases illustrate the format of a correct answer.
ADLLEEEVIISWSEKASKKYVSKE [EIF5]: 3.98
EDQTEYLEERRVKEVVKKHSQFIG [HSP90AB1]: 4.11

Attention now turns to another entry.
## Input I'd like to know its protein stability index. The sequence in question is ARLLGALAARSGAAYGPGARGEDR [TSPAN10]
## Output 3.89

---

# METHOD NOTES: protein stability index of a GFP-peptide fusion (GPS, HEK-293T) (PSI 1-6); higher = more stable
# EXPERIMENTAL SETUP: treatment: MLN4924 1 uM, 8 h; c terminus: a fixed tail appended
Assign MET whenever protein stability index does not fall below 3; assign NOT MET whenever it does.

Solved entries (count: 5):
SEGSSSSSSSSSSSSSSASSSASS [NFE2L1]: MET
KGEYEVAEGIGSTVFRAILDYYKT [BTBD10]: NOT MET
TYVSPPGNEEEESKIFTTLDPASL [DDIT3]: MET
EDTSNDESSILGTDIDLQTIDNDI [M1AP]: MET
LLPMLDALRFTADVRSVLSRNLHQ [CTDNEP1]: NOT MET

Please find the next sequence below.
## Input Is protein stability index for IKRLVGSDQETLRIHERLVAGSLA [SLC25A25] at or above 3?
## Output NOT MET

---

# METHOD NOTES: protein stability index of a GFP-peptide fusion (GPS, HEK-293T) (PSI 1-6); higher = more stable
# EXPERIMENTAL SETUP: treatment: MLN4924 1 uM, 8 h; c terminus: a fixed tail appended
MEASURED PROPERTY: protein stability index
The response must contain the number and no unit.

Sample answers from the record:
KNLYTNEYVAIKLEPMKSRAPQLH [CSNK1G3]: 2.5
DDRVLSSLVRDTIARVHGTFGAAA [POP5]: 2.96
LTQRQVNITVQKKVSQWWERLTKQ [HACD3]: 2.81
RLPRAIGMSLAKELIFSARVLDGK [AUH]: 1.9
CHELLGHVPLLAEPSFAQFSQEIG [TPH1]: 3.02
NGIHVCMVFEVLGHHLLKWIIKSN [SRPK2]: 2.96

## Input GET /values?readout=protein stability index&item= FEGMAFLETEQGKPFVSVFRHLRL [GMCL1]
## Output 2.25

## Input Which protein stability index is reported for this sequence? KYLVEHKADLEVSNRHGHTCLMIS [FEM1C]
## Output 2.67

## Input Look up protein stability index for this sequence: NPYTELLVLKAHHDIVRFLVQLDD [WDR41]
## Output 2.65

## Input Report protein stability index for VPETIHDELQQSFQKSHNSLQRWE [PRIM1] please.
## Output 3.75

## Input GET /values?readout=protein stability index&item= SCLLPSSEAKLYGRCELARVLHDF [SPACA3]
## Output 2.1

## Input Tell me the measured protein stability index of LGSQIKSLCNLEESITSAGRDDLE [FAM98B] , please.
## Output 4.74

## Input Look at this sequence and give its reported protein stability index. HWALRVTPGLGVVAVLLLFLVVRE [SPNS1]
## Output 2.79

## Input What measured protein stability index goes with TDAKKREALYAQDPSTGCYMYYFQ [KMT5A] ?
## Output 2.68

---

Item-by-item account of protein stability index
# METHOD NOTES: protein stability index of a GFP-peptide fusion (GPS, HEK-293T) (PSI 1-6); higher = more stable
# EXPERIMENTAL SETUP: treatment: MLN4924 1 uM, 8 h; c terminus: a fixed tail appended

VVVFKALVTTHHLMVHGNERFIQY [SNAP91]: 3.02
TAAMRCMCPLYDPNRQLWIELAPL [GAN]: 2.16
FLKNTEVSSMECEKNLYWICNKPY [CD69]: 2.27

## Input Returns the measured protein stability index for the input sequence. Input: DVTSGDHGDYFRLLLPGIYTVSAT [CPN1]
## Output 2.02

## Input Could you share which protein stability index value was measured for IRVMVHGRNHTPFLGHHSFSVRPG [SCNN1D] ?
## Output 2.85

## Input Please give the measured protein stability index for this sequence: RGTHLWEFIRDILIHPELNEGLMK [ELF3]
## Output 2.31

## Input Any idea what protein stability index was measured for RTIAETEAAYLKILESSQTLLSVL [SSNA1] ?
## Output 2.72

## Input # get_value(readout='protein stability index', item= TLRPTDSQSHCYRTCFSPASDGSD [PCDHGC5] )
## Output 4.04

---

In this section, each of the sequences is paired with its reported protein stability index.
# METHOD NOTES: protein stability index of a GFP-peptide fusion (GPS, HEK-293T) (PSI 1-6); higher = more stable
# EXPERIMENTAL SETUP: treatment: DMSO; c terminus: a fixed tail appended
Form field (numeric): enter value without unit.

RAHPPQRPASSGGAHTLVNHGYAE [KCNA3]: 4.12
DHPIVETLRQKAEADKNDKAVKDL [HSP90AB1]: 5.58
VAHVKHLSASQKALKEKEKASWSS [COX4I1]: 3.57
DVVCKNQDELRNRSVKVICLGSLA [FAN1]: 2.72
PAQRSHTYTHGLGLHRRPGAGHCS: 3.52
NLEKQLICPICLEMFTKPVVILPC [TRIM55]: 2.41
AGNDPYCFVEFHEHRHAAAALAAM [TIA1]: 2.66
LETEQGKPFVSVFRHLRLQYIISD [GMCL1]: 2.21
ISEAQLKDRETSKVIYDFIEKTGG [WASL]: 3.42
TWRHRETLIIAVLVSASIANLWLW [FATE1]: 3.2

## Input // protein stability index lookup, key: LNYLVDPVTICCGHSFCRPCLCLS [TRIM43]
## Output 2.26

## Input Endpoint output: protein stability index of YLDPSVLSGVSCFVMFLCLADYLV [ARL6IP1] . Value?
## Output 2.98

## Input Request the reported protein stability index associated with PQAPDPEEEENRDSQQPGKRRKDS [FANCE]
## Output 5.74

## Input Query: protein stability index; subject: VVVFKALVTTHHLMVHGNERFIQY [SNAP91]
## Output 3.2

## Input Endpoint output: protein stability index of FKAHKSVLAARSPVFNAMFEHEME [SPOPL] . Value?
## Output 3.17
